- EXPERIMENTAL DETAILS: physchem
- Type: physicochemical
- MEASUREMENT CONTEXT: pH 7, aqueous buffer, thermodynamic from solid
ATTRIBUTE MEASURED: solubility

Assign solubility to the following record: O=C(CCCNC(C(=O)O)c1ccccc1[N+](=O)[O-])OC(C(=O)O)c1ccccc1[N+](=O)[O-] (stereo not shown)
≤ 17 mM

----------
- SYSTEM TESTED: GABAA receptors
- EXPERIMENTAL DETAILS: Current evoked by puff of 100 μM GABA and caged compounds around the soma (Matsuzaki et al., 2010)
- Type: cell-based
- MEASUREMENT CONTEXT: Table 1; calculated from data of Matsuzaki et al. 2010
ATTRIBUTE MEASURED: pIC50
A value of pIC50 is the negative decimal logarithm of a concentration given in moles per litre.

Read the entry COc1ccc([N+](=O)[O-])c2c1CCN2C(=O)CC[C@H](N)C(=O)O and write its reported pIC50.
2.96

----------
- Test system: GABAA receptors
- EXPERIMENTAL DETAILS: Spontaneous IPSC / miniature GABA current amplitude, whole-cell patch recording from cerebellar molecular layer interneurons
- Format: cell-based
- MEASUREMENT CONTEXT: read-out: estimated IC50 from concentration-dependence of the reduction of spontaneous IPSC amplitude; crude product; stated to be a lower bound
ATTRIBUTE MEASURED: IC50

# return recorded IC50 for entry O=C(CCCNC(C(=O)O)c1ccccc1[N+](=O)[O-])OC(C(=O)O)c1ccccc1[N+](=O)[O-] (stereo not shown)
≥ 2500 µM

----------
- EXPERIMENTAL DETAILS: physchem
- Type: physicochemical
- MEASUREMENT CONTEXT: buffer, pH 7.4
ATTRIBUTE MEASURED: half-life at 12 mM (days)
Answer in days, number only, no unit symbol.

Identify measured half-life at 12 mM corresponding to O=C(CCCNC(C(=O)O)c1ccccc1[N+](=O)[O-])OC(C(=O)O)c1ccccc1[N+](=O)[O-] (stereo not shown)
98
